# System: CD34+CD45RA− cell
# test: Hematopoietic stem cell expansion assay (CD34+CD45RA− cell count versus DMSO vehicle cultures)
# Assay type: cell-based
# conditionParameters: Homo sapiens, concentration that results in a 50% increase in CD34+CD45RA− cell count compared to vehicle cultures (DMSO), Table 1′, pyrido[4,3-b]indole series, read-out: Biological data EC50
endpointName: EC50

The following compounds have reported results that may help.
COC(=O)c1ccc2c(c1)[nH]c1ccnc(NCCCN3CCCCC3)c12 > 1000 nM
COC(=O)c1ccc2c(c1)[nH]c1cc(Cc3cccc(O)c3)nc(NCCCCN3CCCC3)c12 < 100 nM
COC(=O)c1ccc2c(c1)[nH]c1cc(Cc3ccsc3)nc(NCCN(C)CCNC(=O)OC(C)(C)C)c12 > 1000 nM
COC(=O)c1ccc2c(c1)[nH]c1cc(Cc3ccccc3)nc(NCCN3CCCC3)c12 < 100 nM
COC(=O)c1ccc2c(c1)[nH]c1cc(Cc3ccccc3)nc(NCCCN3CCCCC3)c12 < 100 nM
COC(=O)c1ccc2c(c1)[nH]c1cc(Cc3cccc(OC)c3)nc(NCCCCN3CCCC3)c12 < 100 nM
COC(=O)c1ccc2c(c1)[nH]c1cc(Cc3ccsc3)nc(NCCN(C)CCN)c12 250 to 500 nM
CNCCCN(C)c1nc(Cc2cccnc2)cc2[nH]c3cc(C(=O)OC)ccc3c12 > 1000 nM

INPUT: Notebook entry, CD34+CD45RA− cell assay: EC50 of COC(=O)c1ccc2c(c1)[nH]c1cc(Cc3ccsc3)nc(NCCC[N+]3(CC(N)=O)CCCCC3)c12 = ?
OUTPUT: < 100 nM

INPUT: # value lookup — system CD34+CD45RA− cell, readout EC50, item Cn1nnc(-c2ccc3c(c2)[nH]c2cc(Cc4ccccc4)nc(NCCCN4CCCCC4)c23)n1
OUTPUT: 100 to 250 nM

----------
# Test system: CD34+CD45RA− cell
# test: Hematopoietic stem cell expansion assay (CD34+CD45RA− cell count versus DMSO vehicle cultures)
# Type: cell-based
# conditionParameters: Homo sapiens, concentration that results in a 50% increase in CD34+CD45RA− cell count compared to vehicle cultures (DMSO), Table 1′, pyrido[4,3-b]indole series, read-out: Biological data EC50
Below, each entry is listed with its recorded EC50.

Look over these answered cases.
COC(=O)c1ccc2c(c1)[nH]c1cc(Cc3cccnc3)nc(NCCCN3CCOCC3)c12 500 to 1000 nM
COC(=O)c1ccc2c(c1)[nH]c1cc(Cc3cccnc3)nc(N3CCC(N4CCCC4)CC3)c12 > 1000 nM
COC(=O)c1ccc2c(c1)[nH]c1cc(Cc3ccccc3)nc(N(C)CCCN(C)C)c12 < 100 nM
COC(=O)c1ccc2c(c1)[nH]c1cc(Cc3ccsc3)nc(NCCCN3CCCCC3)c12 100 to 250 nM

Consider now this further molecule.
INPUT: Lab request: please report EC50 under test system CD34+CD45RA− cell for COC(=O)c1ccc2c(c1)[nH]c1cc(Cc3ccsc3)nc(N[C@H]3CC[C@H](N)CC3)c12
OUTPUT: 100 to 250 nM
